Tested on: transglutaminase (TGase)
Assay: Measurement of TG (TGase inhibitory activity, monodansyl cadaverine / N,N-dimethylcasein fluorescence, FDSS 3000)
Assay type: biochemical
Settings: TGase inhibitory activity value, Table 1
Measure: TGase activity remaining (% of DMSO control = 100)
Give bare numbers.

Reference set (5 entries):
c1ccc(CNCCOB(c2ccccc2)c2cccc(COCc3cccc(B(OCCNCc4ccccc4)c4ccccc4)c3)c2)cc1
3
COCOCc1ccc(B(OCCN(C)C)c2ccc(Oc3ccc(B(OCCN(C)C)c4ccccc4)cc3)cc2)cc1
21
CC(C)(C)c1cc(B(OCCN)c2ccccc2)c2c(c1)C(C)(C)c1cc(C(C)(C)C)cc(B(OCCN)c3ccccc3)c1O2
88
OB(c1ccccc1)c1ccc(Oc2ccc(B(O)c3ccccc3)cc2)cc1
−20
NCCOB(c1ccccc1)c1ccc(COCc2cccc(B(OCCN)c3ccccc3)c2)cc1
21

Hey, can you go through the list below and give me TGase activity remaining (% of DMSO control = 100) for every item?
1. O=C(OB(c1ccccc1)c1ccccc1)C1CC(O)CN1 (stereo not shown) [Example 268, diphenyl(hydroxyprolinate-O,N)borane]
2. Cc1ccc(B(OC(=O)C(N)C(C)O)c2ccc(C)c(Cl)c2)cc1Cl (stereo not shown)
3. Fc1ccc(NCCOBc2cccc(COCc3cccc(BOCCNc4ccc(F)cc4)c3)c2)cc1
4. Cc1ccc(B(OC(=O)C(N)CCCNC(N)=O)c2ccc(C)c(Cl)c2)cc1Cl (stereo not shown)
5. COc1ccc(NCCOBc2cccc(COCc3cccc(BOCCNc4ccc(OC)cc4)c3)c2)cc1
6. c1ccc(B(OB(c2ccccc2)c2ccccc2)c2ccccc2)cc1 [Example 217, diphenylborinic acid anhydride]
7. Cc1ccc(B(SCCN)c2ccc(C)c(Cl)c2)cc1Cl

Result:
1. 103
2. 50
3. 102
4. 146
5. 55
6. 118
7. 12

Hey, can you go through the list below and give me TGase activity remaining (% of DMSO control = 100) for every item?
1. OB(c1ccccc1)c1ccc(B(O)c2ccccc2)cc1 [Example 252, 1,4-bis(phenylhydroxyboryl)benzene]
2. Cc1ccc(B(O)c2ccc(-c3ccc(B(O)c4ccc(C)cc4)cc3)cc2)cc1
3. Fc1cc(B(OCc2ccccn2)c2cc(F)c(F)c(F)c2)cc(F)c1F
4. Cc1cc(B(O)c2cccc(COCc3ccccc3B(O)c3ccc(Cl)c(C)c3)c2)ccc1Cl

Result:
93
97
93
91

---

Assignment: determine reported TGase activity remaining (% of DMSO control = 100) for the given compounds.
Tested on: transglutaminase (TGase)
Assay: Measurement of TG (TGase inhibitory activity, monodansyl cadaverine / N,N-dimethylcasein fluorescence, FDSS 3000)
Format: biochemical
Conditions: TGase activity with compound (10 mM, 1 μL in 0.1 ml enzyme reaction solution); DMSO control taken as 100
Give bare numbers.

Reference set (3 entries):
NCCCC(N)C(=O)OB(c1ccccc1)c1ccccc1 (stereo not drawn) [Example 308, diphenyl(ornithinate-O,N)borane]
27
NCCSB(c1ccccc1)c1ccc(COCc2ccc(B(SCCN)c3ccccc3)cc2)cc1
6
CN(C)CCOB(c1ccccc1)c1cccc2ccccc12
97

Hey, can you go through the list below and give me TGase activity remaining (% of DMSO control = 100) for every item?
1. NCCCC(N)C(=O)OB(c1ccccc1)c1cccc(COCc2cccc(B(OC(=O)C(N)CCCN)c3ccccc3)c2)c1 (stereo not drawn)
2. CN(C)CCOB(c1ccccc1)c1ccc(Oc2ccc(B(OCCN(C)C)c3ccccc3)cc2)cc1 [Example 385]
3. Cc1ccc(B(SCCN)c2ccc(C)c(Cl)c2)cc1Cl
4. NCC(N)C(=O)OB(c1ccccc1)c1ccc(Oc2ccc(B(OC(=O)C(N)CN)c3ccccc3)cc2)cc1 (stereo not drawn)
5. O=C(OB(c1ccccc1)c1ccccc1)C1CNCCN1 (stereo not drawn)
6. Cc1ccc(B(OC(c2ccccc2)C(N)c2ccccc2)c2ccc(C)c(Cl)c2)cc1Cl (stereo not drawn)
7. Cc1ccc(B(OCCN2CCCCC2)c2ccc(C)c(Cl)c2)cc1Cl

Result:
1: 103; 2: 116; 3: 12; 4: 104; 5: 103; 6: 109; 7: 35

---

Tested on: transglutaminase (TGase)
Test: Measurement of TG (TGase inhibitory activity, monodansyl cadaverine / N,N-dimethylcasein fluorescence, FDSS 3000)
Format: biochemical
Settings: TGase activity with compound (10 mM, 1 μL in 0.1 ml enzyme reaction solution); DMSO control taken as 100
Measure: TGase activity remaining (% of DMSO control = 100)
Give bare numbers.

Reference set (3 entries):
c1ccc(B(OCc2ccccn2)c2ccc(COCc3ccc(B(OCc4ccccn4)c4ccccc4)cc3)cc2)cc1
94
CNCCOB(c1ccccc1)c1cccc(COCc2cccc(B(OCCNC)c3ccccc3)c2)c1
15
NCCOB(c1ccc(Cl)c(F)c1)c1ccc(Cl)c(F)c1 [Example 93]
117

Hey, can you go through the list below and give me TGase activity remaining (% of DMSO control = 100) for every item?
1. CNCCOB(c1cc(Cl)ccc1F)c1cc(Cl)ccc1F
2. NCCOB(c1ccccc1)c1ccc(COc2ccc(B(OCCN)c3ccccc3)cc2)cc1
3. NCCOB(c1cccc(COCc2cccc(B(OCCN)c3cccc4ccccc34)c2)c1)c1cccc2ccccc12
4. Cc1ccc(B(O)c2ccc(COCc3ccc(B(O)c4ccc(C)c(Cl)c4)cc3)cc2)cc1Cl [Example 144]
5. NCCNCCOB(c1ccccc1)c1ccccc1 [Example 154, diphenyl 2-aminoethylaminoethyl borinate]

Result:
122
16
75
99
105

Hey, can you go through the list below and give me TGase activity remaining (% of DMSO control = 100) for every item?
1. OB(c1ccccc1)c1ccc(COCc2ccccc2B(O)c2ccccc2)cc1
2. COc1ccc(B(OCCN)c2ccc(COCc3ccc(B(OCCN)c4ccc(OC)cc4)cc3)cc2)cc1
3. NC(=O)CC(N)C(=O)OB(c1ccc(COCc2ccc(B(OC(=O)C(N)CC(N)=O)c3ccc(C(F)(F)F)cc3)cc2)cc1)c1ccc(C(F)(F)F)cc1 (stereo not shown) [Example 185]
4. OB(c1ccccc1)c1ccccc1
5. FC(F)(F)c1ccc(C(OB(c2ccccc2)c2ccccc2COCc2ccccc2B(OC(c2ccc(C(F)(F)F)cc2)c2ccccn2)c2ccccc2)c2ccccn2)cc1 (stereo not shown)
6. FC(F)(F)c1ccc(B(OCc2ccccn2)c2ccc(C(F)(F)F)cc2)cc1
7. Cc1ccc(NCCOBc2ccc(COCc3ccc(BOCCNc4ccc(C)cc4)cc3)cc2)cc1

Result:
[101, 65, 130, 108, 94, 100, 108]

Problem: Please give the measured TGase activity remaining (% of DMSO control = 100) for this compound: CSCCC(N)C(=O)OB(c1ccccc1)c1ccccc1 (stereo not shown) [Example 194, diphenyl(methionate-O,N)borane]
Result: 106

---

Tested on: transglutaminase (TGase)
Assay: Measurement of TG (TGase inhibitory activity, monodansyl cadaverine / N,N-dimethylcasein fluorescence, FDSS 3000)
Format: biochemical
Conditions: TGase activity with compound (10 mM, 1 μL in 0.1 ml enzyme reaction solution); DMSO control taken as 100
Measure: TGase activity remaining (% of DMSO control = 100)
Answers are plain numbers.

NCC(=O)OB(c1ccccc1)c1ccc(Oc2ccc(B(OC(=O)CN)c3ccccc3)cc2)cc1
101
CN(C)CCOB(c1ccc(F)c(Cl)c1)c1ccc(F)c(Cl)c1
104
N#Cc1ccc(B(OCCNCc2ccccc2)c2ccc(C#N)cc2)cc1
92
Cc1ccc(B(SCCN(C)C)c2ccc(C)c(Cl)c2)cc1Cl
107
c1ccc(B(OCC2CCCN2)c2ccc(COCc3ccc(B(OCC4CCCN4)c4ccccc4)cc3)cc2)cc1 (stereo not shown)
29
Cc1ccc(B(OC(=O)c2ccccc2N)c2ccc(C)c(Cl)c2)cc1Cl
35

Lab note: next molecule to report on.
Problem: Please give the measured TGase activity remaining (% of DMSO control = 100) for this molecule: Cc1ccc(Cl)cc1B(O)c1cc(Cl)ccc1C
Result: 98

---

Assignment: determine reported TGase activity remaining (% of DMSO control = 100) for the given molecules.
Test system: transglutaminase (TGase)
Assay: Measurement of TG (TGase inhibitory activity, monodansyl cadaverine / N,N-dimethylcasein fluorescence, FDSS 3000)
Assay type: biochemical
Conditions: TGase activity with compound (10 mM, 1 μL in 0.1 ml enzyme reaction solution); DMSO control taken as 100
Give bare numbers.

Reference set (5 entries):
CN(C)CCOB(c1ccc(COc2ccc(B(OCCN(C)C)c3ccc(C(F)(F)F)cc3)cc2)cc1)c1ccc(C(F)(F)F)cc1
121
Cc1ccc(B(OCCN)c2ccc(B(OCCN)c3ccc(C)c(Cl)c3)cc2)cc1Cl
143
Cc1cc(B(O)c2ccc(COCc3ccc(B(O)c4ccc(Cl)c(C)c4)cc3)cc2)ccc1Cl [Example 338]
110
Cc1ccc2cccc(OB(c3ccccc3)c3ccc(Oc4ccc(B(Oc5cccc6ccc(C)nc56)c5ccccc5)cc4)cc3)c2n1
97
NCCOB(c1ccccc1)c1cccc(B(OCCN)c2ccccc2)c1
88

Hey, can you go through the list below and give me TGase activity remaining (% of DMSO control = 100) for every item?
1. OB(c1ccccc1)c1ccc(-c2ccc(B(O)c3ccccc3)cc2)cc1 [Example 140, 4,4′-phenylhydroxyboryl 4-biphenyl]
2. NC(=O)C1NCCNC1C(=O)OB(c1ccccc1)c1ccccc1 (stereo not shown)

Result:
−72
92
